System: OVCAR-8 ovarian
test-method-notes: NCI tumour cell line growth inhibition, 48 h
Where a SMILES comes first, the peptide text is derived from it. [ ]: non-standard residue; d: D form. The star is where a group is joined. ξ: configuration not given here. dIva = CC[C@@](C)(N)C(=O)O; Aib = CC(C)(N)C(=O)O; ξP = O=C(O)C1CCCN1; βAla = NCCC(=O)O; X5 = OCN*
readout-name: TGI

These solved cases illustrate the format of a correct answer.
compound	measurement-target	readout-name	test-result
CC[C@@](C)(NC(=O)[C@H](C)NC(=O)CCNC(=O)C(C)(C)NC(=O)[C@H](C)NC(=O)[C@@H]1CCCN1C(=O)[C@@](C)(CC)NC(=O)[C@H](Cc1ccccc1)NC(=O)C1CCCN1C(=O)C(C)(C)NC(=O)C1CCCN1C(=O)C(C)(C)NC(C)=O)C(=O)NCCC(=O)N[C@@H](CC(C)C)C(=O)NC(C)(C)C(=O)NCCC(=O)N[C@@H](CC(C)C)C(=O)NC(C)(C)C(=O)NC(C)(C)C(=O)N[C@@H](CC(C)C)C(=O)NCCC(=O)NCO (stereo partly drawn) (Ac-[Aib][ξP][Aib][ξP]F[dIva]PA[Aib][βAla]A[dIva][βAla]L[Aib][βAla]L[Aib][Aib]L[βAla]-X5)	OVCAR-8 ovarian	TGI	0.359 µM
NC(=O)N=Nc1c2ccccc2n2[nH]ccc12	OVCAR-8 ovarian	TGI	> 100 µM

Enquiry: Sample N#CC12CC3(CCC1CCC1(C2)OCCO1)OCCO3 (stereo not drawn) — what was its TGI?
Return: > 100 µM

====

Readings of TGI for the listed compounds
Tested on: CCRF-CEM leukemia
test-method-notes: NCI tumour cell line growth inhibition, 48 h

These solved cases illustrate the format of a correct answer.
compound	measurement-target	readout-name	test-result
C/C(=N\NS(=O)(=O)c1ccccc1)c1ccc[n+]([O-])n1	CCRF-CEM leukemia	TGI	64.6 µM
COc1cccc(-c2cc(=O)c3cc(N4CCCC4)ccc3[nH]2)c1	CCRF-CEM leukemia	TGI	> 10 µM
COn1cc(C(=O)N=C(SC)SC)c2ccccc21	CCRF-CEM leukemia	TGI	91 µM
CC(=O)NC1=CC(=O)C=C(Cl)C1=O	CCRF-CEM leukemia	TGI	57.8 µM

Enquiry: Sample CC(C)(C)c1cc2c(O)c(c1)COCc1cc(C(C)(C)C)cc(c1O)COCc1cc(C(C)(C)C)cc(c1O)COC2 — what was its TGI?
Return: > 100 µM

Enquiry: Sample O=c1cc(-c2cccc(Br)c2)[nH]c2cc3c(cc12)OCO3 — what was its TGI?
Return: > 100 µM

Enquiry: Sample CN/N=C(/CC(=O)c1sc(NNC(C)=O)nc1C)C(=O)Nc1ccc(OC)cc1OC — what was its TGI?
Return: > 100 µM

Enquiry: Sample O=C(N1CCN(c2ccccc2)CC1)N(C(=O)C1(c2ccc(Cl)cc2)CCCC1)S(=O)(=O)c1ccccc1 — what was its TGI?
Return: > 100 µM

Enquiry: Sample Nc1nc(N)c(-c2ccc(Cl)cc2)c(/C=C/c2ccc([N+](=O)[O-])cc2)n1 — what was its TGI?
Return: > 100 µM

Enquiry: Sample Cc1ccc(NCc2nnc3c(-c4ccccc4)nc4ccccc4n23)cc1 — what was its TGI?
Return: > 100 µM

====

Test system: K-562 leukemia
test-method-notes: NCI tumour cell line growth inhibition, 48 h; in the data active = GI50 below about 0.43 µM; inactive = the rest
Reply using exactly one outcome from 1 (yes) = active, 0 (no) = inactive

As a guide, the following entries are already answered.
molecule	class-name
Cn1c(=O)c2[nH]cnc2n(C)c1=O.[CH2-]C(Cc1cccc2cc(C(=O)O)c(=O)oc12)OC.[Hg+2].[OH-] (stereo unspecified)	0 (no)
CN1C(=O)C(C)(C)Oc2c(-c3cn(C)c(=O)c4[nH]ccc34)cc(S(C)(=O)=O)cc21	0 (no)
COc1ccc(/C=C/C(=O)/C=C(/C=C/c2ccc(OC)c(OC)c2OC)OB(F)F)c(OC)c1OC	0 (no)

Enquiry: Could you check what this test reported for CSc1nc(-c2cccc(NC(=O)CCl)c2)c(C#N)c(=O)n1C ?
Return: 0 (no)

Enquiry: Could you check what this test reported for CN1CCN(Cc2ccc(NC(=O)c3cncc(C#Cc4ncc5ccccn45)c3)cc2C(F)(F)F)CC1 ?
Return: 1 (yes)

Enquiry: Could you check what this test reported for CN(C)c1ccc(/C=c2\sc3nnc(Cc4ccccc4)n3c2=O)cc1 ?
Return: 0 (no)

Enquiry: Could you check what this test reported for COc1ccc(OC)c(/C=C/C(=O)c2ccc3cc(OC)ccc3c2)c1 ?
Return: 0 (no)

Enquiry: Could you check what this test reported for NC(N)=NC(N)=NCc1ccco1 ?
Return: 0 (no)

Enquiry: Could you check what this test reported for COC(=O)CCc1c(/C=C2\N=C(c3ccc[nH]3)C=C2OC)[nH]c(C)c1C(=O)OCc1ccccc1 ?
Return: 1 (yes)

Enquiry: Could you check what this test reported for CN1CCN(Cc2ccc(NC(=O)c3[nH]ncc3Nc3cc(OC4CCCC4)ncn3)cc2)CC1 ?
Return: 0 (no)

Enquiry: Could you check what this test reported for CC1(C)N=C(N)N=C(N)N1c1ccc(CCC(=O)Nc2cccc(S(=O)(=O)F)c2)cc1 ?
Return: 0 (no)

====

Test system: SF-268 CNS
test-method-notes: NCI tumour cell line growth inhibition, 48 h
Where a SMILES comes first, the peptide text is derived from it. [ ]: non-standard residue; d: D form. The star is where a group is joined. ξ: configuration not given here. dIva = CC[C@@](C)(N)C(=O)O; Aib = CC(C)(N)C(=O)O; ξP = O=C(O)C1CCCN1; βAla = NCCC(=O)O; X5 = OCN*
readout-name: TGI (µM)
Please respond with the number in µM and leave the unit unwritten.

These solved cases illustrate the format of a correct answer.
molecule	measurement-target	u	test-result
Nc1nc(Cl)c2ncn(Cc3ccc(-c4ccc(CCl)cc4)cc3)c2n1	SF-268 CNS	µM	36.5
CN1CCN(Cc2ccc(NC(=O)c3[nH]ncc3Nc3cc(OC4CCCC4)ncn3)cc2)CC1	SF-268 CNS	µM	19
CC[C@@](C)(NC(=O)[C@H](C)NC(=O)CCNC(=O)C(C)(C)NC(=O)[C@H](C)NC(=O)[C@@H]1CCCN1C(=O)[C@@](C)(CC)NC(=O)[C@H](Cc1ccccc1)NC(=O)C1CCCN1C(=O)C(C)(C)NC(=O)C1CCCN1C(=O)C(C)(C)NC(C)=O)C(=O)NCCC(=O)N[C@@H](CC(C)C)C(=O)NC(C)(C)C(=O)NCCC(=O)N[C@@H](CC(C)C)C(=O)NC(C)(C)C(=O)NC(C)(C)C(=O)N[C@@H](CC(C)C)C(=O)NCCC(=O)NCO (stereo partly specified) (Ac-[Aib][ξP][Aib][ξP]F[dIva]PA[Aib][βAla]A[dIva][βAla]L[Aib][βAla]L[Aib][Aib]L[βAla]-X5)	SF-268 CNS	µM	0.368

We next turn to a different molecule, shown below.
Enquiry: Lab request: please report TGI under test system SF-268 CNS for CC1=C(C(=O)NCc2ccccc2)C(c2ccccc2O)C(C(=O)NCc2ccccc2)=C(C)N1
Return: 55.3

====

Readings of GI50 for the listed molecules
Tested on: PC-3 prostate
test-method-notes: NCI tumour cell line growth inhibition, 48 h

These solved cases illustrate the format of a correct answer.
molecule	test-result
CN1CCN(Cc2ccc(NC(=O)c3[nH]ncc3Nc3cc(OC4CCCC4)ncn3)cc2)CC1	2260 nM
COc1ccc(-c2c(C#N)cnc(N)c2-c2nc3cc(C)c(C)cc3[nH]2)cc1	8860 nM
COc1ccc(/C=C/C(=O)/C=C(/C=C/c2ccc(OC)c(OC)c2OC)OB(F)F)c(OC)c1OC	2820 nM
CC(=O)N1c2ccc(-c3ccc(C(=O)O)cc3)cc2[C@H](Nc2ccc(Cl)cc2)C[C@@H]1C	1240 nM
CC1CC2(C)CC(=O)C1C1C(=O)N(CCN3CCOCC3)C(=O)C12 (stereo not given)	> 100000 nM
COc1ccc(-c2cc3c(N)ncnc3o2)cc1	> 25000 nM
C[C@H](c1ccc(Cl)cc1[N+](=O)[O-])N1C(=O)c2cc(I)ccc2NC(=O)[C@H]1c1ccc(Cl)cc1	4860 nM
CC(CNc1nc(Nc2ccc(Cl)c(Cl)c2)nc(C(Cl)(Cl)Cl)n1)N(C)C (stereo not given)	1760 nM

Enquiry: Lab request: please report GI50 under test system PC-3 prostate for O=S1(=O)C=C(c2ccccc2)C(c2ccccc2)=C1
Return: 1790 nM

Enquiry: Lab request: please report GI50 under test system PC-3 prostate for Cn1c(=O)c2[nH]cnc2n(C)c1=O.[CH2-]C(Cc1cccc2cc(C(=O)O)c(=O)oc12)OC.[Hg+2].[OH-] (stereo not given)
Return: 18000 nM

====

Tested on: HCC-2998 colon
test-method-notes: NCI tumour cell line growth inhibition, 48 h
Readings of TGI for the listed molecules

Enquiry: Sample COc1ccc(/C=C2\CC3C4CC=C5C[C@@H](O)CC[C@]5(C)C4CC[C@]3(C)C2=O)cc1OC (some centres not stated) — what was its TGI?
Return: > 100 µM

Enquiry: Sample NC(N)=N/N=C/c1c(-c2ccc(Cl)cc2)nc2n1CCS2 — what was its TGI?
Return: 8.39 µM

Enquiry: Sample CC1CCC2[C@@H](C)COC3O[C@]4(C)CCC1C32OO4 (some centres not stated) — what was its TGI?
Return: > 100 µM

Enquiry: Sample C=[N+](CNC(=O)CNC(=O)C(Cc1ccccc1)NC(=O)OC(C)(C)C)C(=O)CNC(=O)C(Cc1ccccc1)NC(=O)OC(C)(C)C (configuration not stated) — what was its TGI?
Return: > 100 µM

Enquiry: Sample COc1ccc2c(c1)O/C(=C\c1ccc([N+](=O)[O-])s1)C2=O — what was its TGI?
Return: > 100 µM

Enquiry: Sample CCOC(=O)C1C(=O)c2cccc(OC)c2C2COC(=O)N12 (configuration not stated) — what was its TGI?
Return: > 100 µM

Enquiry: Sample COC(=O)C(=O)C(C(=O)C(=O)Nc1nc(=S)[nH][nH]1)c1nc2ccc([N+](=O)[O-])cc2[nH]c1=O (configuration not stated) — what was its TGI?
Return: > 100 µM

Enquiry: Sample O=C1NC(=O)C2(CCc3ccc(N(CCCl)CCCl)cc32)N1 (configuration not stated) — what was its TGI?
Return: 34.1 µM

Enquiry: Sample N#CCCn1c(CCC(=O)Nc2ccc(Cl)cc2Cl)n[nH]c1=S — what was its TGI?
Return: > 100 µM

Enquiry: Sample CCCNC(=O)Nc1ccc2c(c1)Cc1cc(N(CCCl)CCCl)ccc1-2 — what was its TGI?
Return: 67.6 µM
